Attribution: patent US20030148958A1

Target: T1, corticotropin releasing factor 2 receptor; further: reference of the scale not given here
T1 sequence (Q13324 whole entry, species assumed, looked up): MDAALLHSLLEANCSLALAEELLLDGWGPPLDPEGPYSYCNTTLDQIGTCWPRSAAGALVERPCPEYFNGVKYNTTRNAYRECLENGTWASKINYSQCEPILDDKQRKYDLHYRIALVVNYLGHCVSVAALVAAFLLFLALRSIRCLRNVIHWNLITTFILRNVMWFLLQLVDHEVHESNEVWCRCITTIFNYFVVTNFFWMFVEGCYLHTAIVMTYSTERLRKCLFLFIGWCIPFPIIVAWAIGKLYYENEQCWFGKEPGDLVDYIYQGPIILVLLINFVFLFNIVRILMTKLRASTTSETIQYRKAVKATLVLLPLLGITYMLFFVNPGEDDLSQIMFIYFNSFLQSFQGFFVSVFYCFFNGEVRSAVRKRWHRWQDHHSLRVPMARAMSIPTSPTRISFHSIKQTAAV
Experiment: cell-based or functional assay
Ends that are not written are not given here.
CRF2R Emax of 80% or higher: rule met. Under 80%: rule not met.

{"BINDER": "ZGPPISIDLPQLLLRKMIEIEKQEKEKQQAANNRLLLDTI (C-terminal amide) [SEQ ID NO 196]", "ASSIGNED_CLASS": "rule met"}
{"BINDER": "ZGPPISIDLPFQLLRKMIEIEKQEKEKQQATTNRLLLARV (C-terminal amide) [SEQ ID NO 19]", "ASSIGNED_CLASS": "rule not met"}
{"BINDER": "ZGPPISIDLPTWLLRKMIEIEKQEKEKQQAANNRLLLDTI (C-terminal amide) [SEQ ID NO 41]", "ASSIGNED_CLASS": "rule met"}
{"BINDER": "ZGPPISIDLPFQLLRKMIEIEKQEKEKQQAAANRLLLDTV (C-terminal amide) [SEQ ID NO 15]", "ASSIGNED_CLASS": "rule met"}
{"BINDER": "ZGPPISIDLPTRLLRKMIEIEKQEKEKQQAANNRLLLDTI (C-terminal amide) [SEQ ID NO 60]", "ASSIGNED_CLASS": "rule not met"}
{"BINDER": "IVLSLDVPIGLLQILLEQAAAAREQATTNARILARV-NH2 [SEQ ID NO 134]", "ASSIGNED_CLASS": "rule not met"}
{"BINDER": "IVLSLDVPIGLLQILLEQARAEAAREQATTNARILARV-NH2 [SEQ ID NO 122]", "ASSIGNED_CLASS": "rule met"}
{"BINDER": "ZGPPISIDLPFQLLRKMIEIEKQEKEKQQAANNRLLLDTI (C-terminal amide) [SEQ ID NO 84]", "ASSIGNED_CLASS": "rule met"}
{"BINDER": "ZGPPISIDLPYILLRKMIEIEKQEKEKQQAANNRLLLDTI (C-terminal amide) [SEQ ID NO 204]", "ASSIGNED_CLASS": "rule met"}
{"BINDER": "SQEPPISLDLTFHLLREVLEQARARAAREQATTNARILARV-NH2 [SEQ ID NO 157]", "ASSIGNED_CLASS": "rule not met"}
{"BINDER": "ZGPPISIDLPFQLLRKMIEIEKQEKEKQQATNNRLLLATV (C-terminal amide) [SEQ ID NO 12]", "ASSIGNED_CLASS": "rule met"}
